- study_target: Polyunsaturated fatty acid lipoxygenase ALOX12 (Homo sapiens) (UniProt P18054)
- Sequence (P18054 whole entry, looked up): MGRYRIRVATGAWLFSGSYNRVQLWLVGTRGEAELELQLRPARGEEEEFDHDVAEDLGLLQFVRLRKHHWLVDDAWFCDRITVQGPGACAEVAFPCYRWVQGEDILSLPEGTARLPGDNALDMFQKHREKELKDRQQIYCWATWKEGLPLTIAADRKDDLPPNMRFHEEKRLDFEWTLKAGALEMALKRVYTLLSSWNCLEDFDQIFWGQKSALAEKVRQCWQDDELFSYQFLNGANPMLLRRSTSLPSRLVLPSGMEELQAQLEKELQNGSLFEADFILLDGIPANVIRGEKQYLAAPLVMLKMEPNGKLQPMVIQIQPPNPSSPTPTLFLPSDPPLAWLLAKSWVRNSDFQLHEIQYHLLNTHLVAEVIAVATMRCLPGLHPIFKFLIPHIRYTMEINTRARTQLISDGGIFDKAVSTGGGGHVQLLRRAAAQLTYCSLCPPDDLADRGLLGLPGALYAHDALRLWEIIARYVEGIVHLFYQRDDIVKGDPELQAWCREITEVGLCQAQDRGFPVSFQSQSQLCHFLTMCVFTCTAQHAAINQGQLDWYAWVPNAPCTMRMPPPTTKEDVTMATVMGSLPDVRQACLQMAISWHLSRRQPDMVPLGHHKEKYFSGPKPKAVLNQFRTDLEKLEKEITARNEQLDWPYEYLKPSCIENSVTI
- procedure_text: Primary qHTS assay for inhibitors of human arachidonate 12S-lipoxygenase (ALOX12): Round 2
- condition: purified 12hLO, xylenol orange hydroperoxide absorbance; series mostly up to 108 µM
The campaign covered roughly 580,000 compounds. About 6,100 (1.1%) were called active. About 15% were inconclusive and are not listed. Calls follow the shape of the dose curve; as a rule, active = well fitted inhibition curve with a large enough effect; inconclusive = small, poorly fitted or top-dose-only effect, or another doubt; inactive = no such curve, though single readings can be large or run the other way. This is one part of a sample in which actives are shown more often than they occur.
Pick one and only one: True = active, False = inactive

- compound: "COc1ccc2cc(S(=O)(=O)c3ccc(Cl)c(Cl)c3)c(=O)oc2c1"
  class_assignment: "False"
- compound: "C[N+](C)(C)CC#CCCCC#CC[N+](C)(C)C"
  class_assignment: "True"
- compound: "CCC(Oc1ccc(Br)cc1)C(=O)O (centres undefined)"
  class_assignment: "False"
- compound: "Cc1cc(OC(C)C(=O)Nc2sc3c(c2C(N)=O)CCCC3)ccc1Cl (centres undefined)"
  class_assignment: "False"
- compound: "CC(Sc1ccc(Cl)cc1)C(=O)NCCC(=O)N1CCCC1 (centres undefined)"
  class_assignment: "False"
- compound: "CCOC(=O)C1Cn2c(nc3c(c2=O)C(C)(CC)Cc2ccccc2-3)S1 (centres undefined)"
  class_assignment: "False"
- compound: "CN(C)C[C@@H]1CN(C)C[C@H]1NS(=O)(=O)c1cccc(C(F)(F)F)c1"
  class_assignment: "False"
- compound: "O=C(OCc1ccccc1)N1CCOCC12CCN(Cc1cccc(O)c1)CC2"
  class_assignment: "False"

Lookup: Hi team, can someone confirm the assay call for `Cc1oc(-c2ccccc2)nc1Cn1ncc2ccccc2c1=O` ?
Found: False

====

- study_target: Polyunsaturated fatty acid lipoxygenase ALOX12 (Homo sapiens) (UniProt P18054)
- procedure_text: Primary qHTS assay for inhibitors of human arachidonate 12S-lipoxygenase (ALOX12): Round 2
- condition: purified 12hLO, xylenol orange hydroperoxide absorbance; series mostly up to 108 µM
Among all 580,000 compounds or so, about 6,100 (1.1%) were called active. Roughly 15% stayed inconclusive and do not appear here. Calls follow the shape of the dose curve; as a rule, active = well fitted inhibition curve with a large enough effect; inconclusive = small, poorly fitted or top-dose-only effect, or another doubt; inactive = no such curve, though single readings can be large or run the other way. For the sample, actives were picked, then their nearest neighbours and some compounds at random.
A correct response names exactly one class from active, inactive

Record excerpt, results attached:
- compound: "CCCNC(=O)C1(C)CCCN(Cc2cccc(C(F)(F)F)c2)C1 (centres undefined)"
  class_assignment: "inactive"
- compound: "COc1ccc(C2CC(=O)NC(SCC(=O)Nc3c(C)cccc3C)=C2C#N)cc1OC (centres undefined)"
  class_assignment: "inactive"

Lookup: What was the test verdict on `O=C(c1cccnc1)N(c1cc2sc(=O)oc2c2ccccc12)S(=O)(=O)c1ccccc1` ?
Found: active

Lookup: Per the assay record, what outcome was assigned to `CCN(Cc1nc2ccccc2c(=O)[nH]1)C(=O)Cc1csc(-c2ccc(C)cc2C)n1` ?
Found: inactive

Lookup: What outcome does the record of this test show for Cc1ccc(NC(NC(=O)c2cccc(C)c2)C(Cl)(Cl)Cl)cc1 (centres undefined) ?
Found: inactive

Lookup: Please state the recorded outcome for this compound: `COc1ccc(N2C(=O)C(C)(C)CS2(=O)=O)cc1S(=O)(=O)Nc1ccc(F)c(Cl)c1`
Found: inactive

Lookup: Just curious, what result did `Cc1nn2c(c1-c1ccccc1-c1ccccc1)N(C(=O)CN1CCOCC1)CCC2` get here?
Found: inactive

Lookup: Outcome logged for O=C(NC(c1ccccc1)c1cc2ccccc2o1)C1CCCC1 (centres undefined) in this assay:
Found: inactive

Lookup: Recorded test call requested for `COc1ccc(-c2nnc(SC(=O)N3c4ccccc4Sc4ccccc43)o2)cc1`
Found: active

Lookup: Each compound tested received a call. Report the one for `CCc1ccc(-c2csc(NC(=O)c3nn(CC)c(=O)c4ccccc34)n2)cc1` .
Found: inactive

Lookup: Returns: the outcome recorded for `COc1ccc(NC(=O)[C@@H]2C[C@@H](c3ccc(F)cc3)N(CCOc3ccccc3)C2)cn1` in this assay.
Found: active

Lookup: Could you please tell me the result logged for `Cc1nc2c(c(C)c1CCC(=O)NCCN1CCCC1)c(=O)n(C)c(=O)n2C` in this assay?
Found: inactive

Lookup: Hello, I am checking results. What call was entered for `CC(=O)N1CCC2(CCCN(Cc3ccccc3)C2)CC1` ?
Found: inactive

Lookup: What did the test return for `CC(C)c1ccc(Nc2nnc(SCC(=O)c3nnc(-c4ccccc4)o3)s2)cc1` ?
Found: active

Lookup: Per the records of this test, what outcome belongs to C=CCOc1cccc(C2C(C(=O)c3ccc(C)o3)=C(O)C(=O)N2CCN2CCOCC2)c1 (centres undefined) ?
Found: inactive

Lookup: Test call, this compound: `CCC(=O)Nc1ccc2nc(-c3ccccc3C)oc2c1`
Found: inactive

Lookup: Dear all, I need the recorded test outcome for `O=C(Nc1cccnc1)[C@@H]1C[C@@H](c2ccc(F)cc2)N([S+](=O)([O-])c2ccccc2)C1` , thank you.
Found: inactive

Lookup: Returns: the outcome recorded for `CCc1nn2c(=O)cc(CNc3cc(F)ccc3F)nc2s1` in this assay.
Found: inactive

Lookup: Record request — test call for `COC(=O)c1ccc(OCc2cccc(C#N)c2)c(OC)c1`
Found: inactive

Lookup: How was `Cc1ccc(C2(C(=O)N3C[C@@H](CN4CCCCC4)[C@@H](CO)C3)CC2)cc1` classified in this test?
Found: inactive

Lookup: Could you please tell me the result logged for Cc1c(Cc2ccccc2)c(=O)oc2c(C)c(OC(C)C(=O)O)ccc12 (centres undefined) in this assay?
Found: inactive

Lookup: Just curious, what result did Cc1cccc2c1NC(=O)C21CC(=O)Nc2c1cnn2C(C)(C)C (centres undefined) get here?
Found: inactive

Lookup: GET /call?item= `Cc1ccc(N(CC(=O)Nc2cc(C)cc(C)c2)S(=O)(=O)c2cccc3nonc23)cc1` returns the recorded outcome of this test.
Found: inactive

Lookup: Dear colleague, could you share the recorded outcome for `COc1ccc(NC(=O)[C@@H]2C[C@@H](c3cccc(C(F)(F)F)c3)N(Cc3cnn(C)c3)C2)cn1` when you have a moment?
Found: inactive

Lookup: Recorded test call requested for `CC(C)Oc1c(Br)cc(Br)cc1/C=N/NC(N)=S`
Found: active

Lookup: Fill in: this test's call for `Cc1ccc(Nc2nnc(SCC(=O)c3ccc(Cl)s3)s2)cc1C` is ___
Found: inactive

Lookup: Hi team, can someone confirm the assay call for C=CCOc1cccc(C2C(C(=O)c3ccc(C)o3)=C(O)C(=O)N2c2nnc(C)s2)c1 (centres undefined) ?
Found: active

====

- study_target: Polyunsaturated fatty acid lipoxygenase ALOX12 (Homo sapiens) (UniProt P18054)
- procedure_text: Primary qHTS assay for inhibitors of human arachidonate 12S-lipoxygenase (ALOX12): Round 2
- condition: purified 12hLO, xylenol orange hydroperoxide absorbance; series mostly up to 108 µM
Screen size: about 580,000 compounds; about 6,100 (1.1%) were called active. About 15% were inconclusive and are not listed. Calls follow the shape of the dose curve; as a rule, active = well fitted inhibition curve with a large enough effect; inconclusive = small, poorly fitted or top-dose-only effect, or another doubt; inactive = no such curve, though single readings can be large or run the other way. For the sample, actives were picked, then their nearest neighbours and some compounds at random.
Respond with a class label; see active, inactive

Previously resolved entries follow.
- smiles_notation: "COCCCNC(=O)c1ccc(-c2c(C)noc2C)c2ccoc12"
  class_assignment: "inactive"
- smiles_notation: "CNc1cc(-c2c(C)noc2C)ncn1"
  class_assignment: "inactive"
- smiles_notation: "COCCNc1cc(-c2c(C)noc2C)ncn1"
  class_assignment: "active"
- smiles_notation: "Cc1cnc(-c2ccccc2)n1CCNC(=O)CCC1CCCC1"
  class_assignment: "inactive"

Lookup: Outcome? `Cn1c(=O)[nH]c(=O)c2c1nc(SCCO)n2Cc1ccc(Cl)cc1`
Found: inactive

====

- study_target: Polyunsaturated fatty acid lipoxygenase ALOX12 (Homo sapiens)
- procedure_text: Primary qHTS assay for inhibitors of human arachidonate 12S-lipoxygenase (ALOX12): Round 2
- condition: purified 12hLO, xylenol orange hydroperoxide absorbance; series mostly up to 108 µM
Out of some 580,000 compounds screened, about 6,100 (1.1%) were called active. Not shown: some 15% with an inconclusive outcome. The call rests on the fitted dose curve; in most records, active means well fitted inhibition curve with a large enough effect; inconclusive means small, poorly fitted or top-dose-only effect, or another doubt; inactive means no such curve, though single readings can be large or run the other way. The entries come from a sample that favours actives as a whole.
Form entry, call: pick from True = active, False = inactive

These recorded examples may help you get a feel for the data.
- molecule: "O=C(NC(=S)NC1CCCCC1)c1ccc(Cl)cc1"
  class_assignment: "True"
- molecule: "CC(C)NC(=O)N1Cc2[nH]cnc2C[C@H]1c1nc(-c2ccc(Cl)cc2)no1"
  class_assignment: "True"
- molecule: "COc1ccc(C(=O)CSc2nnc(NC(=O)C3CC(=O)N(c4cccc(OC)c4)C3)s2)cc1 (stereo not given)"
  class_assignment: "False"
- molecule: "CCc1nnc(NC(=O)C2CC(=O)N(c3ccc4c(c3)OCCO4)C2)s1 (stereo not given)"
  class_assignment: "False"
- molecule: "Cc1ccc(-c2cn3nc(N4CCCC(C(=O)NCCc5cccs5)C4)sc3n2)cc1 (stereo not given)"
  class_assignment: "False"

Lookup: What did this assay record as the result for `CNC(=O)c1ccc(-c2nc(CN3CCN(C(=O)Nc4ccc(C)c(C)c4)CC3)c(C)o2)cc1` ?
Found: False

Lookup: # outcome recorded in this test, key = `COc1ccc(S(=O)(=O)N2CCC(C(=O)Nc3cccc(C)c3)CC2)c2cccnc12`
Found: False

Lookup: Hello, I am checking results. What call was entered for `CCOC(=O)c1ccc(NC(=O)N2Cc3[nH]cnc3C[C@H]2c2nc(-c3ccc(Cl)cc3)no2)cc1` ?
Found: False

Lookup: Called result for Cc1[nH]c2ccccc2c1C(=O)CSc1nnc(CC(C)c2ccccc2)o1 (stereo not given)
Found: False

Lookup: Per the assay record, what outcome was assigned to `O=C(NC1CCCCCC1)C1CCN(C(=O)c2ccc(Cl)cc2)CC1` ?
Found: False
